Recorded values, source patent US9603834B2.

Here the recorded CCR2 % Antagonism is given for each entry.
System: CCR2 (Homo sapiens (Human), UniProt P41597)
Sequence (P41597 whole entry, species assumed): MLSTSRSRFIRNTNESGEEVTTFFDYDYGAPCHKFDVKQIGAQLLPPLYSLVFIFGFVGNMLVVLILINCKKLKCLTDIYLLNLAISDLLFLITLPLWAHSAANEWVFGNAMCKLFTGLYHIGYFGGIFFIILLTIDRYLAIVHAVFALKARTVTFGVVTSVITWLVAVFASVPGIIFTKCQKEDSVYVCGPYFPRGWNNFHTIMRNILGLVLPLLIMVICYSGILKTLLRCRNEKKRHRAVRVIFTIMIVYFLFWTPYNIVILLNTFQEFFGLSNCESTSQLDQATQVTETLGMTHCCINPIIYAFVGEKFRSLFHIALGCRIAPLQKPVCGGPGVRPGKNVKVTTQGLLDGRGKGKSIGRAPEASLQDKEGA
Procedure Text: Calcium activity on FLIPR Tetra in HEK-Gqi5 cells stably expressing CCR2
Type: cell-based
Test Conditions: FLIPR Tetra calcium assay
Numbers only; they are read as %.

Worked set:
Smiles Notation	System	CCR2 % Antagonism / %
O=S(=O)(Nc1cc(Cl)c(Cl)cc1NS(=O)(=O)c1ccc(F)cc1F)c1cccs1	CCR2 (Homo sapiens (Human), UniProt P41597)	89
Cc1n[nH]c(C)c1S(=O)(=O)Nc1ccc(Cl)cc1NS(=O)(=O)c1cc2ccccc2o1	CCR2 (Homo sapiens (Human), UniProt P41597)	108
O=S(=O)(Nc1cc(Cl)ccc1NS(=O)(=O)c1c(Cl)cccc1Cl)c1cc2ccccc2o1	CCR2 (Homo sapiens (Human), UniProt P41597)	89
O=S(=O)(Nc1cc(Cl)c(Cl)cc1NS(=O)(=O)c1ccc(Cl)s1)c1cccs1	CCR2 (Homo sapiens (Human), UniProt P41597)	89
Cc1ccc(S(=O)(=O)Nc2ccc(Cl)cc2NS(=O)(=O)c2cc3ccccc3o2)s1	CCR2 (Homo sapiens (Human), UniProt P41597)	96

The measured CCR2 % Antagonism that O=S(=O)(Nc1cc(Cl)c(Cl)cc1NS(=O)(=O)c1cccs1)c1ccc(F)cc1 showed for CCR2 (Homo sapiens (Human), UniProt P41597) is 91

CCR2 % Antagonism on CCR2 (Homo sapiens (Human), UniProt P41597) for O=S(=O)(Nc1cc(Cl)ccc1NS(=O)(=O)c1c(F)cccc1F)c1cc2ccccc2o1 is 99

Tested system CCR2 (Homo sapiens (Human), UniProt P41597); CCR2 % Antagonism recorded for Cc1nn(C)c(Cl)c1S(=O)(=O)Nc1ccc(Cl)cc1NS(=O)(=O)c1cc2ccccc2o1 was 80

// CCR2 % Antagonism (CCR2 (Homo sapiens (Human), UniProt P41597)) for O=S(=O)(Nc1cc(Cl)c(Cl)cc1NS(=O)(=O)c1cccc(Cl)c1F)c1cccs1 = 96
